Tested on: HCV 1b-BB7 subgenomic replicon
assay.text: microbe, parasite or virus in culture
Format: cell-based, HCV genotype 1b
run.conditions: Hepatitis C virus, stable replicon, strain 1b BB7, 5% FBS; read-out: 1b BB7 5% FBS EC50
observation.type: EC50

{"compound": "CS(=O)(=O)CCN(c1cc2oc(-c3ccc(F)cc3)c(-c3ncc[nH]3)c2cc1C1CC1)S(C)(=O)=O [Example 87]", "observation.type": "EC50", "recorded.measurement": "4.9 nM"}

Problem: Need EC50, item CCS(=O)(=O)CCN(c1cc2oc(-c3ccc(F)cc3)c(-c3ncc[nH]3)c2cc1C1CC1)S(C)(=O)=O [Example 96]
Solution: 4 nM

Problem: What does the record list as EC50 for CS(=O)(=O)N(CCCn1cccc1)c1cc2oc(-c3ccc(F)cc3)c(C3=NOCCN3)c2cc1C1CC1 [Example 119] ?
Solution: 17 nM

Problem: Request the reported EC50 associated with CS(=O)(=O)N(CCC(F)(F)F)c1cc2oc(-c3ccc(F)cc3)c(C3=NOCCN3)c2cc1C1CC1 [Example 118]
Solution: 26 nM

Problem: Field request: EC50 | item: CS(=O)(=O)CCCN(c1cc2oc(-c3ccc(F)cc3)c(-c3ncc[nH]3)c2cc1C1CC1)S(C)(=O)=O [Example 101]
Solution: 5.9 nM

Problem: Which EC50 is reported for this compound? CS(=O)(=O)N(CCCO)c1cc2oc(-c3ccc(F)cc3)c(-c3ncc[nH]3)c2cc1C1CC1 [Example 65]
Solution: 6.8 nM

Problem: Reported EC50, compound CC(=O)CCCN(c1cc2oc(-c3ccc(F)cc3)c(-c3ncc[nH]3)c2cc1C1CC1)S(C)(=O)=O [Example 73] : ____
Solution: 4.9 nM

Problem: Value lookup for EC50; key = CS(=O)(=O)CCN(c1cc2oc(-c3ccc(F)cc3)c(C3=NOCCN3)c2cc1C1CC1)S(C)(=O)=O [Example 9]
Solution: 15 nM

Problem: # lookup: EC50 of CS(=O)(=O)N(CCCCC(N)=O)c1cc2oc(-c3ccc(F)cc3)c(-c3ncc[nH]3)c2cc1C1CC1 [Example 91]
Solution: 4.9 nM

Problem: EC50 for CS(=O)(=O)N(CCCS(N)(=O)=O)c1cc2oc(-c3ccc(F)cc3)c(C3=NOCCN3)c2cc1C1CC1 [Example 124] ?
Solution: 44 nM
